Taken from PubChem BioAssay AID401.

# inhibition per record follows
# experimental_system: Tyrosine-protein phosphatase non-receptor type 7 (Homo sapiens)
# protocol_details: inhibition of HePTP dephosphorylation activity – biochemical, DiFMUP fluorescence, recombinant human enzyme (AID 401)
# condition_notes: recombinant PTPN7, DiFMUP fluorescence; at 50 µM; enzyme 55 ng/mL; 25 °C; DTT 5 mM; stronger effect = higher value
The figure you give is taken to be in %; do not add the unit.

Worked examples follow.
- O=C(O)c1ccc(O)c(C=Nc2ccc3oc(-c4cccc(Cl)c4)nc3c2)c1: 25
- CCn1nc(-c2ccccc2)nc2c(=O)n(C)c(=O)nc1-2: 16
- CCn1nc(/C=C/c2ccccc2)nc2c(=O)n(C)c(=O)nc1-2: 39

What does the data say about its inhibition? Entry: CC(C)CN1C(=O)c2ccc(C(=O)Nc3ccc(O)cc3C(=O)O)cc2C1=O 26
